experimentalSystem: PAK1 (Homo sapiens, UniProt Q13153)
Sequence (Q13153 whole entry): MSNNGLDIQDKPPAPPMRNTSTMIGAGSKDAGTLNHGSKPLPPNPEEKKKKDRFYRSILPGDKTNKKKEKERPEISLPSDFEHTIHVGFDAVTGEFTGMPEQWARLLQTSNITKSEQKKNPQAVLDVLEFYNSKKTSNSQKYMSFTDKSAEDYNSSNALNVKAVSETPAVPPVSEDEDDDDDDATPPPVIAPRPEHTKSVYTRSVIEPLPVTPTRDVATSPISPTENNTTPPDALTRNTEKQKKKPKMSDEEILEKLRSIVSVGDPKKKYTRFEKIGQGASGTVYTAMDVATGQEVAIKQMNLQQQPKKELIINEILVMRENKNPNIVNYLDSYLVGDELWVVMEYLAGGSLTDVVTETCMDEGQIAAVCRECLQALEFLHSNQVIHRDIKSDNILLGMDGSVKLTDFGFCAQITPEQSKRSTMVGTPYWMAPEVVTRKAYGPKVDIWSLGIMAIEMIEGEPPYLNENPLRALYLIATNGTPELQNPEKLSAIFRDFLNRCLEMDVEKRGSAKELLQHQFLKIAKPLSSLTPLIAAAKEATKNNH
pIC50: −log10 of the molar value.
Answer each item with its documented pIC50.

Give pIC50 for each listed item.
1. CCn1c(=O)c(-c2ccc(-c3ccnc(C)c3)cc2Cl)cc2cnc(Nc3ccc(C4CCN5CCCC5C4)cc3)nc21 (centres unmarked)
2. Cc1cnc(-c2ccc(-c3cc4cnc(Nc5ccc(C6CCN(C)CC6)cc5)nc4n(C)c3=O)c(C)c2)s1
3. CCn1c(=O)c(-c2ccc(-c3cccnc3F)cc2Cl)cc2cnc(Nc3ccc(C4CCN(C)CC4)c(F)c3)nc21
4. CN1CCC(c2ccc(Nc3ncc4cc(-c5cc(-c6cnccn6)ccc5Cl)c(=O)n(C)c4n3)cc2)CC1
5. CCn1c(=O)c(-c2ccc(-c3cnc(C)s3)cc2Cl)cc2cnc(Nc3ccc(N4CCN(C)CC4)cc3)nc21

Out:
1. > 7.30
2. > 7.30
3. > 7.30
4. 6.30 to 7.30
5. > 7.30

Give pIC50 for each listed item.
1. CC(=O)N(C)c1ccc(-c2ccc(Cl)c(-c3cc4cnc(Nc5ccc(C6CCN(C)CC6)cc5)nc4n(C)c3=O)c2)cn1
2. CCn1c(=O)c(-c2ccc(-c3noc(C)n3)cc2)cc2cnc(Nc3ccc(N4CCN(C)CC4)cc3)nc21
3. CCn1c(=O)c(-c2ccc(-c3cccnc3)cc2Cl)cc2cnc(Nc3ccccc3)nc21

Out:
1: < 5.30; 2: > 7.30; 3: 6.30 to 7.30
